- Experimental target: Fuc(a1-2)Gal(b1-3)GlcNAc(b1-3)[Fuc(a1-3)[Gal(b1-4)]GlcNAc(b1-6)]Gal(b1-4)Glc
- Test description: glycan array binding signal (z-score within array); higher = stronger binding
- Condition info: glycan notation: IUPAC condensed, linker removed
The sample as a whole holds a higher share of the strongest signals than the screen did.
Reported glycan array binding signal (z-score) values follow for various binders
Recorded metric: glycan array binding signal (z-score)

INSERT INTO measurements (binder, reported_value) VALUES
  ('CTLY 1 (Homo sapiens), Q6ZS10 (protein) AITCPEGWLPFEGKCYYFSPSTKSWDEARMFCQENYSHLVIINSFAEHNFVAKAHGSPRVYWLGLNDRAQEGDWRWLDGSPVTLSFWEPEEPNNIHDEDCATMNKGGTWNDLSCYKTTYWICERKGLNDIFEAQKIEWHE', -0.239),
  ('SEX4 (Arabidopsis thaliana), Q944A8 (protein) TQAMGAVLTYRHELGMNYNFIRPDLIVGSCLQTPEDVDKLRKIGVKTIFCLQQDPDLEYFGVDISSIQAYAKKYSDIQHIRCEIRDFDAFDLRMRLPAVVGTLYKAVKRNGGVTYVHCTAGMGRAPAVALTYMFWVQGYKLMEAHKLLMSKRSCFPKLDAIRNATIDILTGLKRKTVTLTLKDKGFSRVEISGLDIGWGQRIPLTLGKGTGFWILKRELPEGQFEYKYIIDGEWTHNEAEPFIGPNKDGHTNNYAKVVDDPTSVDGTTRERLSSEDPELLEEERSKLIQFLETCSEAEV', -0.488),
  ('LSectin (Mus musculus), Q8BNX1 (protein) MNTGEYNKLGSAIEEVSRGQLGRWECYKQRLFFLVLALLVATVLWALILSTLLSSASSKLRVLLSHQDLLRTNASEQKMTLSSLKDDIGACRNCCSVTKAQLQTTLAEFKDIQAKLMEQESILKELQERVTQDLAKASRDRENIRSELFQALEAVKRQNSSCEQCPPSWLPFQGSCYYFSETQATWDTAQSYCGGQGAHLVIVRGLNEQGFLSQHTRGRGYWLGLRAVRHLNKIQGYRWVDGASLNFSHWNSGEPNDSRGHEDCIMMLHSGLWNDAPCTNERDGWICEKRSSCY', -0.187),
  ('Gal 1 (Canis lupus) (protein) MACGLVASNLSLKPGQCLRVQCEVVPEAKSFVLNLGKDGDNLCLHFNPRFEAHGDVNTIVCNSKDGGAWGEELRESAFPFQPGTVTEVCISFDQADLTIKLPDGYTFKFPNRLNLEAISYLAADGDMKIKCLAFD', 0.066);
